Reported values of MIC for individual entries
# System: Mycobacterium smegmatis ATCC607 ST-R (streptothricin-resistant)
# test description: Antibacterial spectrum, serial dilution on 1% glycerin-supplemented nutrient agar
# Type: cell-based
# condition info: Mycolicibacterium smegmatis, ATCC607, read-out: Minimum growth inhibitory concentration

>  <compound>
CCCCCCCCCCCC(CC(=O)OC1CN(C)C(C(OC2OC(CN)C(O)C2O)C2OC(n3ccc(=O)[nH]c3=O)C(O)C2O)C(=O)N(C)C1C(=O)O)OC(=O)CC(C)CC(=O)OC1OC(C)C(OC)C(OC)C1OC (centres unmarked)

>  <unit abbreviation>
µg/mL

>  <MIC>
0.78

$$$$
>  <compound>
COC1C(C)OC(OC(=O)CC(C)CC(=O)OC(CCCCCCCCC(C)C)CC(=O)OC2CN(C)C(C(OC3OC(CN)C(O)C3O)C3OC(n4ccc(=O)[nH]c4=O)C(O)C3O)C(=O)N(C)C2C(=O)O)C(OC)C1OC (centres unmarked)

>  <unit abbreviation>
µg/mL

>  <MIC>
0.78

$$$$
>  <compound>
CCCCCCCCCCCCC(CC(=O)OC1CN(C)C(C(OC2OC(CN)C(O)C2O)C2OC(n3ccc(=O)[nH]c3=O)C(O)C2O)C(=O)N(C)C1C(=O)O)OC(=O)CC(C)CC(=O)OC1OC(C)C(OC)C(OC)C1OC (centres unmarked)

>  <unit abbreviation>
µg/mL

>  <MIC>
1.56

$$$$
>  <compound>
COC1C(C)OC(OC(=O)CC(C)CC(=O)OC(CCCCCCCCCCC(C)C)CC(=O)OC2CN(C)C(C(OC3OC(CN)C(O)C3O)C3OC(n4ccc(=O)[nH]c4=O)C(O)C3O)C(=O)N(C)C2C(=O)O)C(OC)C1OC (centres unmarked)

>  <unit abbreviation>
µg/mL

>  <MIC>
1.56

$$$$
>  <compound>
CCCCCCCCCCCCCC(CC(=O)OC1CN(C)C(C(OC2OC(CN)C(O)C2O)C2OC(n3ccc(=O)[nH]c3=O)C(O)C2O)C(=O)N(C)C1C(=O)O)OC(=O)CC(C)CC(=O)OC1OC(C)C(OC)C(OC)C1OC (centres unmarked)

>  <unit abbreviation>
µg/mL

>  <MIC>
0.78

$$$$

---

# System: Mycobacterium smegmatis ATCC607
Reported values of MIC for individual entries

>  <compound>
CCCCCCCCCCCCCC(CC(=O)OC1CN(C)C(C(OC2OC(CN)C(O)C2O)C2OC(n3ccc(=O)[nH]c3=O)C(O)C2O)C(=O)N(C)C1C(=O)O)OC(=O)CC(C)CC(=O)OC1OC(C)C(OC)C(OC)C1OC (centres unmarked)

>  <unit abbreviation>
µg/mL

>  <MIC>
1.56

$$$$
>  <compound>
CCCCCCCCCCCCC(CC(=O)OC1CN(C)C(C(OC2OC(CN)C(O)C2O)C2OC(n3ccc(=O)[nH]c3=O)C(O)C2O)C(=O)N(C)C1C(=O)O)OC(=O)CC(C)CC(=O)OC1OC(C)C(OC)C(OC)C1OC (centres unmarked)

>  <unit abbreviation>
µg/mL

>  <MIC>
1.56

$$$$

---

// values below are MIC; system is Mycobacterium smegmatis ATCC607

>  <compound>
COC1C(C)OC(OC(=O)CC(C)CC(=O)OC(CCCCCCCCC(C)C)CC(=O)OC2CN(C)C(C(OC3OC(CN)C(O)C3O)C3OC(n4ccc(=O)[nH]c4=O)C(O)C3O)C(=O)N(C)C2C(=O)O)C(OC)C1OC (stereo not drawn)

>  <unit abbreviation>
µg/mL

>  <MIC>
1.56

$$$$
>  <compound>
COC1C(C)OC(OC(=O)CC(C)CC(=O)OC(CCCCCCCCCCC(C)C)CC(=O)OC2CN(C)C(C(OC3OC(CN)C(O)C3O)C3OC(n4ccc(=O)[nH]c4=O)C(O)C3O)C(=O)N(C)C2C(=O)O)C(OC)C1OC (stereo not drawn)

>  <unit abbreviation>
µg/mL

>  <MIC>
3.13

$$$$
>  <compound>
CCCCCCCCCCCC(CC(=O)OC1CN(C)C(C(OC2OC(CN)C(O)C2O)C2OC(n3ccc(=O)[nH]c3=O)C(O)C2O)C(=O)N(C)C1C(=O)O)OC(=O)CC(C)CC(=O)OC1OC(C)C(OC)C(OC)C1OC (stereo not drawn)

>  <unit abbreviation>
µg/mL

>  <MIC>
1.56

$$$$

---

# Test system: Mycobacterium smegmatis ATCC607 PM-R (paromomycin-resistant)
# test description: Antibacterial spectrum, serial dilution on 1% glycerin-supplemented nutrient agar
# Assay type: cell-based
# condition info: Mycolicibacterium smegmatis, ATCC607, read-out: Minimum growth inhibitory concentration

>  <compound>
CCCCCCCCCCCC(CC(=O)OC1CN(C)C(C(OC2OC(CN)C(O)C2O)C2OC(n3ccc(=O)[nH]c3=O)C(O)C2O)C(=O)N(C)C1C(=O)O)OC(=O)CC(C)CC(=O)OC1OC(C)C(OC)C(OC)C1OC (centres unmarked)

>  <MIC, µg/mL>
1.56

$$$$
>  <compound>
CCCCCCCCCCCCC(CC(=O)OC1CN(C)C(C(OC2OC(CN)C(O)C2O)C2OC(n3ccc(=O)[nH]c3=O)C(O)C2O)C(=O)N(C)C1C(=O)O)OC(=O)CC(C)CC(=O)OC1OC(C)C(OC)C(OC)C1OC (centres unmarked)

>  <MIC, µg/mL>
1.56

$$$$
>  <compound>
COC1C(C)OC(OC(=O)CC(C)CC(=O)OC(CCCCCCCCC(C)C)CC(=O)OC2CN(C)C(C(OC3OC(CN)C(O)C3O)C3OC(n4ccc(=O)[nH]c4=O)C(O)C3O)C(=O)N(C)C2C(=O)O)C(OC)C1OC (centres unmarked)

>  <MIC, µg/mL>
0.78

$$$$
>  <compound>
CCCCCCCCCCCCCC(CC(=O)OC1CN(C)C(C(OC2OC(CN)C(O)C2O)C2OC(n3ccc(=O)[nH]c3=O)C(O)C2O)C(=O)N(C)C1C(=O)O)OC(=O)CC(C)CC(=O)OC1OC(C)C(OC)C(OC)C1OC (centres unmarked)

>  <MIC, µg/mL>
1.56

$$$$
>  <compound>
COC1C(C)OC(OC(=O)CC(C)CC(=O)OC(CCCCCCCCCCC(C)C)CC(=O)OC2CN(C)C(C(OC3OC(CN)C(O)C3O)C3OC(n4ccc(=O)[nH]c4=O)C(O)C3O)C(=O)N(C)C2C(=O)O)C(OC)C1OC (centres unmarked)

>  <MIC, µg/mL>
1.56

$$$$

---

# System: Mycobacterium smegmatis ATCC607 KM-R (kanamycin-resistant)
# test description: Antibacterial spectrum, serial dilution on 1% glycerin-supplemented nutrient agar
# Format: cell-based
# condition info: Mycolicibacterium smegmatis, ATCC607, read-out: Minimum growth inhibitory concentration
Reported values of MIC for individual entries

>  <compound>
CCCCCCCCCCCCC(CC(=O)OC1CN(C)C(C(OC2OC(CN)C(O)C2O)C2OC(n3ccc(=O)[nH]c3=O)C(O)C2O)C(=O)N(C)C1C(=O)O)OC(=O)CC(C)CC(=O)OC1OC(C)C(OC)C(OC)C1OC (centres unmarked)

>  <MIC>
0.78 µg/mL

$$$$
>  <compound>
CCCCCCCCCCCCCC(CC(=O)OC1CN(C)C(C(OC2OC(CN)C(O)C2O)C2OC(n3ccc(=O)[nH]c3=O)C(O)C2O)C(=O)N(C)C1C(=O)O)OC(=O)CC(C)CC(=O)OC1OC(C)C(OC)C(OC)C1OC (centres unmarked)

>  <MIC>
0.78 µg/mL

$$$$
>  <compound>
COC1C(C)OC(OC(=O)CC(C)CC(=O)OC(CCCCCCCCC(C)C)CC(=O)OC2CN(C)C(C(OC3OC(CN)C(O)C3O)C3OC(n4ccc(=O)[nH]c4=O)C(O)C3O)C(=O)N(C)C2C(=O)O)C(OC)C1OC (centres unmarked)

>  <MIC>
0.78 µg/mL

$$$$
>  <compound>
CCCCCCCCCCCC(CC(=O)OC1CN(C)C(C(OC2OC(CN)C(O)C2O)C2OC(n3ccc(=O)[nH]c3=O)C(O)C2O)C(=O)N(C)C1C(=O)O)OC(=O)CC(C)CC(=O)OC1OC(C)C(OC)C(OC)C1OC (centres unmarked)

>  <MIC>
0.78 µg/mL

$$$$
>  <compound>
COC1C(C)OC(OC(=O)CC(C)CC(=O)OC(CCCCCCCCCCC(C)C)CC(=O)OC2CN(C)C(C(OC3OC(CN)C(O)C3O)C3OC(n4ccc(=O)[nH]c4=O)C(O)C3O)C(=O)N(C)C2C(=O)O)C(OC)C1OC (centres unmarked)

>  <MIC>
1.56 µg/mL

$$$$

---

# Tested on: Mycobacterium fortuitum
Reported values of MIC for individual entries

>  <compound>
CCCCCCCCCCCC(CC(=O)OC1CN(C)C(C(OC2OC(CN)C(O)C2O)C2OC(n3ccc(=O)[nH]c3=O)C(O)C2O)C(=O)N(C)C1C(=O)O)OC(=O)CC(C)CC(=O)OC1OC(C)C(OC)C(OC)C1OC (centres unmarked) [Caprazamycin E, caprazamycin E]

>  <assay target>
Mycobacterium fortuitum

>  <MIC, µg/mL>
12.5

$$$$
>  <compound>
CCCCCCCCCCCCCC(CC(=O)OC1CN(C)C(C(OC2OC(CN)C(O)C2O)C2OC(n3ccc(=O)[nH]c3=O)C(O)C2O)C(=O)N(C)C1C(=O)O)OC(=O)CC(C)CC(=O)OC1OC(C)C(OC)C(OC)C1OC (centres unmarked) [Caprazamycin A, caprazamycin A]

>  <assay target>
Mycobacterium fortuitum

>  <MIC, µg/mL>
6.25

$$$$
>  <compound>
CCCCCCCCCCCCC(CC(=O)OC1CN(C)C(C(OC2OC(CN)C(O)C2O)C2OC(n3ccc(=O)[nH]c3=O)C(O)C2O)C(=O)N(C)C1C(=O)O)OC(=O)CC(C)CC(=O)OC1OC(C)C(OC)C(OC)C1OC (centres unmarked) [Caprazamycin C, caprazamycin C]

>  <assay target>
Mycobacterium fortuitum

>  <MIC, µg/mL>
12.5

$$$$
>  <compound>
COC1C(C)OC(OC(=O)CC(C)CC(=O)OC(CCCCCCCCCCC(C)C)CC(=O)OC2CN(C)C(C(OC3OC(CN)C(O)C3O)C3OC(n4ccc(=O)[nH]c4=O)C(O)C3O)C(=O)N(C)C2C(=O)O)C(OC)C1OC (centres unmarked) [Caprazamycin B, caprazamycin B]

>  <assay target>
Mycobacterium fortuitum

>  <MIC, µg/mL>
50

$$$$
>  <compound>
COC1C(C)OC(OC(=O)CC(C)CC(=O)OC(CCCCCCCCC(C)C)CC(=O)OC2CN(C)C(C(OC3OC(CN)C(O)C3O)C3OC(n4ccc(=O)[nH]c4=O)C(O)C3O)C(=O)N(C)C2C(=O)O)C(OC)C1OC (centres unmarked) [Caprazamycin F, caprazamycin F]

>  <assay target>
Mycobacterium fortuitum

>  <MIC, µg/mL>
12.5

$$$$
